target: opioid μ receptor (Rattus norvegicus (Rat), UniProt P33535); test: Binding assay to opioid μ receptor ([3H]-DAMGO, rat cerebrum membrane); conditions: [3H]-DAMGO, rat cerebrum membrane fraction; read-out: Ki
Consider the following compounds; for each one, report its Ki.
Provide only the numeric value, understood in nM.

Item under review: CCN(CC)S(=O)(=O)c1ccc(OC)c(NC(=O)C2=C(O)[C@@H]3Oc4c(O)ccc5c4[C@@]34CCN(CC3CC3)[C@H](C5)[C@]4(O)C2)c1 [Compound I-229] . Reported Ki?
1.3

Item under review: O=C(N[C@H]1CCOC1=O)C1=C(O)[C@@H]2Oc3c(O)ccc4c3[C@@]23CCN(CC2CC2)[C@H](C4)[C@]3(O)C1 [Compound I-145] . Reported Ki?
28.1

Item under review: Cc1ccc2nc(=O)c3c(n2c1)[C@@H]1Oc2c(O)ccc4c2[C@@]12CCN(CC1CC1)[C@H](C4)[C@]2(O)C3 [Compound I-267] . Reported Ki?
0.84

Item under review: Cc1cc(NC(=O)C2=C(O)[C@@H]3Oc4c(O)ccc5c4[C@@]34CCN(CC3CC3)[C@H](C5)[C@]4(O)C2)on1 [Compound I-138] . Reported Ki?
15.5

Item under review: Cc1noc(C(C)(C)NC(=O)C2=C(O)[C@@H]3Oc4c(O)ccc5c4[C@@]34CCN(CC3CC3)[C@H](C5)[C@]4(O)C2)n1 [Compound I-285] . Reported Ki?
7.29

Item under review: Cc1cc(=O)[nH]c2cc(NC(=O)C3=C(O)[C@@H]4Oc5c(O)ccc6c5[C@@]45CCN(CC4CC4)[C@H](C6)[C@]5(O)C3)ccc12 [Compound I-240] . Reported Ki?
6.85

----------
target: opioid μ receptor (Rattus norvegicus (Rat), UniProt P33535); test: Binding assay to opioid μ receptor ([3H]-DAMGO, rat cerebrum membrane)
Consider the following compounds; for each one, report its Ki.
Provide only the numeric value, understood in nM.

Item under review: COc1cc(NC(=O)C2=C(O)[C@@H]3Oc4c(O)ccc5c4[C@@]34CCN(CC3CC3)[C@H](C5)[C@]4(O)C2)ncn1 . Reported Ki?
5.28

Item under review: CC(C)NC(=O)C1=C(O)[C@@H]2Oc3c(O)ccc4c3[C@@]23CCN(CC2CC2)[C@H](C4)[C@]3(O)C1 [Compound I-4, 7-Isopropylaminocarbonylnaltrexone] . Reported Ki?
5.18

Item under review: COC(=O)C1(NC(=O)C2=C(O)[C@@H]3Oc4c(O)ccc5c4[C@@]34CCN(CC3CC3)[C@H](C5)[C@]4(O)C2)CCC1 . Reported Ki?
9.45
